MIC values for the molecules below.
test system: Klebsiella pneumoniae (Kpn, KPWT, ATCC #700603); assay: MIC against Klebsiella pneumoniae reference strain KPWT; format: cell-based; settings: ATCC700603; Klebsiella pneumoniae KPWT, Table 2
Unit µg/mL implied. Number only.

Some solved cases for reference:
NC[C@H]1O[C@H](O[C@H]2[C@H](O)[C@@H](O[C@H]3O[C@H](CO)[C@@H](O)[C@H](N)[C@H]3O)[C@H](N)C[C@@H]2N)[C@H](N)C[C@@H]1O = 8
NC[C@@H]1CC[C@@H](N)[C@@H](O[C@H]2[C@H](O)[C@@H](O[C@H]3O[C@H](CO)[C@@H](O)[C@H](N)[C@H]3O)[C@H](N)C[C@@H]2N)O1 = 16
NCC[C@H](O)C(=O)N[C@@H]1C[C@H](N)[C@@H](O[C@H]2O[C@H](CN)[C@@H](O)[C@H](O)[C@H]2O)[C@H](O)[C@H]1O[C@H]1O[C@H](CO)[C@@H](O)[C@H](N)[C@H]1O = 1

Field: next molecule
# molecule `CN[C@@H]1[C@H](O)[C@H](NC)[C@H]2O[C@@]3(O)C(=O)C[C@@H](C)O[C@H]3O[C@@H]2[C@H]1O` ; its MIC = 64
